Test system: HS 578T breast
Assay: NCI tumour cell line growth inhibition, 48 h
Measured TGI, listed per entry.

Q) Give reported TGI value for C(=Nc1ccccc1C1SCCCS1)c1ccccc1
A) > 100 µM

Q) Give reported TGI value for COC1C(O)CC(OC2CC(OC3CC(O[C@@H]4C(=O)c5c(cc6cc(OC7CC(OC8CC(O)C(O)C(C)O8)C(O)C(C)O7)c(C)c(O)c6c5O)CC4[C@H](OC)C(=O)C(C)=O)OC(C)C3O)OC(C)C2O)OC1C (stereo not given in full)
A) > 11.3 µM

Q) Give reported TGI value for CCOC(=O)c1nnsc1NC(=O)NN
A) > 100 µM

Q) Give reported TGI value for CS(=O)(=O)c1ccc(Oc2cc(F)cc(C#N)c2)c2c1[C@H](O)[C@H](F)[C@H]2F
A) > 100 µM

Q) Give reported TGI value for Cc1ncc(-c2nnnn2-c2ccccc2)c(C(=O)O)n1
A) > 100 µM

Values from PubChem BioAssay (NCI)
